experimental_endpoint: melting point

CC(C)NS(=O)(=O)c1cnc(-c2c(C#N)c3cc(F)ccc3n2C2CCCC2)nc1 [compound 603] :: 217 to 222 °C

Can you look up the measured melting point of Cc1cc2c(cc1F)c(C(N)=O)c(-c1ccc(S(=O)(=O)NC(C)(C)C)cn1)n2C1CCC1 [compound 800] for me?
189 to 193 °C

Could you tell me which melting point is on file for C[C@H](NS(=O)(=O)c1ccc(-c2c(C#N)c3ccc(OC(F)F)cc3n2C2CCC2)nc1)C(F)(F)F [compound 300] ?
159 to 162 °C

Requested read-out: melting point. Entry: N#Cc1c(-c2ncc(S(=O)(=O)NC(CF)CF)cn2)n(C2CCC2)c2cc(F)ccc12 [compound 163]
193 to 195 °C

---

Measured melting point accompanies every entry in the list below.

CCc1cc2c(cc1F)c(C#N)c(-c1ccc(S(=O)(=O)NC(CF)CF)cn1)n2C1CCCC1 :: 179.5 to 180 °C
N#Cc1c(-c2ccc(S(=O)(=O)NC(CF)CF)cn2)n(C2CCCC2)c2ccc(F)cc12 :: 171 to 172 °C
CCc1cc2c(cc1F)c(C#N)c(-c1ccc(S(=O)(=O)N[C@@H](C)C(F)(F)F)cn1)n2-c1cncnc1 :: 250 to 257 °C

// below: melting point requested for another compound
What melting point value was documented for this compound, C[C@H](NS(=O)(=O)c1cnc(-c2c(C#N)c3ccc(Cl)cc3n2C2CCCC2)nc1)C(F)(F)F ?
220 to 224 °C

---

experimental_endpoint: melting point

Cc1cc2c(C#N)c(-c3ccc(S(=O)(=O)N[C@@H](C)C(F)(F)F)cn3)n(-c3ncccn3)c2cc1F :: 125 to 130 °C
CC(C)c1ccc2c(C#N)c(-c3ccc(S(=O)(=O)NC(CF)CF)cn3)n(C(C)C)c2c1 :: 165 to 173 °C
N#Cc1c(-c2ccc(S(=O)(=O)NC3CC(F)(F)C3)cn2)n(C2CCC2)c2cc(C3CC3)ccc12 :: 176 to 178 °C

I would be grateful if you could share the reported melting point for CCc1cc2c(cc1F)c(C(N)=O)c(-c1ccc(S(=O)(=O)N[C@@H](C)C(F)(F)F)cn1)n2-c1cnccn1 .
120 to 127 °C

Request the reported melting point associated with CC(C)n1c(-c2ncc(S(=O)(=O)N[C@@H](C)C(F)(F)F)cn2)c(C#N)c2cc(F)ccc21
172 to 176 °C

Bench note: what melting point did CC(C)(NS(=O)(=O)c1ccc(-c2c(C(N)=O)c3cc(F)c(C4CC4)cc3n2C2CCCC2)nc1)C(F)(F)F show?
236 to 237 °C

Quick one: melting point of CC(C)NS(=O)(=O)c1ccc(-c2c(C#N)c3cc(F)ccc3n2CC2CC2)nc1 ?
160 to 162 °C

---

experimental_endpoint: melting point

Use the examples below as a reference point.
N#Cc1c(-c2ccc(S(=O)(=O)NC(CF)CF)cn2)n(C2CCC2)c2cc(F)ccc12 :: 206 to 208 °C
N#Cc1c(-c2ccc(S(=O)(=O)NC(CF)CF)cn2)n(CC2CC2)c2cc(Cl)ccc12 :: 223 to 227 °C
CC(=O)N([C@H](C)C(F)(F)F)S(=O)(=O)c1ccc(-c2c(C#N)c3cc(F)c(C)cc3n2C2CCCC2)nc1 :: 162 to 163 °C

Pending compound:
Which melting point value is on record for Cc1cc2c(cc1F)c(C#N)c(-c1ncc(S(=O)(=O)N[C@@H](C)C(F)(F)F)cc1C)n2-c1ncccn1 ?
201 to 204 °C

---

experimental_endpoint: melting point

CC(C)NS(=O)(=O)c1cnc(-c2c(C(N)=O)c3ccc(OC(F)F)cc3n2C2CCCCC2)nc1 [compound 747] :: 216 to 218 °C
COc1ccc2c(C#N)c(-c3ccc(S(=O)(=O)N[C@@H](C)C4CC4)cn3)n(C3CCC3)c2c1 [compound 429] :: 193 to 199 °C
Cc1ccc2c(C#N)c(-c3ncc(S(=O)(=O)NC(C)C)cn3)n(CC3CC3)c2c1 [compound 168] :: 245 to 247 °C
Cc1cc2c(cc1F)c(C#N)c(-c1ccc(S(=O)(=O)N[C@H](C)C(F)(F)F)cn1)n2-c1ccccn1 [compound 698] :: 170 to 174 °C
Cc1cc2c(cc1F)c(C#N)c(-c1ccc(S(=O)(=O)N[C@@H](C)C(F)(F)F)c(C)n1)n2C1CCCC1 [compound 868] :: 206 to 211 °C
COc1ccc2c(C#N)c(-c3ncc(S(=O)(=O)N[C@@H](C)C(F)(F)F)cn3)n(C3CCC3)c2c1 [compound 405] :: 254 to 255 °C

// query melting point value for entry C[C@H](NS(=O)(=O)c1ccc(-c2c(C#N)c3cc(O)c(OC(F)F)cc3n2C2CCC2)nc1)C(F)(F)F [compound 674]
174 to 177 °C

May I ask what melting point has been recorded for N#Cc1c(-c2ccc(S(=O)(=O)NC(CF)CF)cn2)n(C2CCOC2)c2ccc(F)cc12 (stereo not drawn) [compound 46] ?
194 to 197 °C

So what does the record say about melting point for CCCn1c(-c2ccc(S(=O)(=O)N[C@H](C)C(F)(F)F)cn2)c(C#N)c2cc(F)c(OC(F)F)cc21 [compound 788] ?
160 to 166 °C

Which value of melting point has been reported for Cc1ccc2c(C#N)c(-c3ncc(S(=O)(=O)NC(CF)CF)cn3)n(C3CCC3)c2c1F [compound 557] in the records?
191 to 198 °C

Consider the compound N#Cc1c(-c2ncc(S(=O)(=O)NC(CF)CF)cn2)n(C2CCCCC2)c2cc(F)ccc12 [compound 235] and give its measured melting point.
213 to 218 °C

Record request: melting point value, item C[C@H](NS(=O)(=O)c1cnc(-c2c(C#N)c3ccc(CC(F)F)cc3n2C2CCCC2)nc1)C(F)(F)F [compound 600]
240 to 246 °C

// returns reported melting point for input CCc1cc2c(cc1F)c(C(N)=O)c(-c1ccc(S(=O)(=O)N[C@@H](C)C(F)(F)F)cn1)n2-c1cccc(Cl)c1 [compound 1027]
200 to 205 °C

melting point lookup needed for C[C@@H](NS(=O)(=O)c1ccc(-c2c(C#N)c3cc(F)c(OC(F)F)cc3n2C2CCC2)nc1)C(F)(F)F [compound 648] , thanks.
173 to 175 °C

For the compound Cc1ccc2c(c1)c(C#N)c(-c1ccc(S(=O)(=O)N[C@H](C)C(F)(F)F)cn1)n2C1CCC1 [compound 484] , what melting point is on record?
134 to 142 °C

---

experimental_endpoint: melting point

Record excerpt, results attached:
CC(C)NS(=O)(=O)c1cnc(-c2c(C#N)c3ccc(Cl)cc3n2C2CCC2)nc1 :: 228 to 229 °C
COc1cc2c(cc1F)c(C#N)c(-c1ccc(S(=O)(=O)NC(CF)CF)cn1)n2C1CCC1 :: 217 to 219 °C
N#Cc1c(-c2ncc(S(=O)(=O)NC(CF)CF)cn2)n(CC2CC2)c2cc(OC(F)F)ccc12 :: 207 to 209 °C
CCc1cc2c(cc1F)c(S(C)(=O)=O)c(-c1ccc(S(=O)(=O)NC(C)(C)C)cn1)n2-c1ncccn1 :: 244 to 248 °C

Reported melting point for CC(C)NS(=O)(=O)c1ccc(-c2c(C#N)c3cccc(F)c3n2C2CCCC2)nc1 : what is it?
152 to 153 °C

Look up melting point for this molecule: CS(=O)(=O)Nc1ccc(-c2c(C#N)c3ccc(C4CC4)cc3n2C2CCC2)cn1
239 to 241 °C

Consider the molecule CCc1cc(F)c2c(C(N)=O)c(-c3ccc(NS(=O)(=O)C(C)(C)C)nc3)n(-c3ccc(F)cc3)c2c1 and give its measured melting point.
280 to 288 °C

---

Item-by-item account of melting point

Illustrative cases are given below, each with its answer.
COc1ccc2c(C#N)c(-c3ncc(S(=O)(=O)NC(CF)CF)cn3)n(C3CCCCC3)c2c1 :: 209 to 215 °C
Cc1cc2c(cc1F)c(C(N)=O)c(-c1ccc(S(=O)(=O)N[C@@H](C)C(F)(F)F)cn1)n2-c1ccc(F)cn1 :: 224 to 228 °C
COc1ccc2c(C#N)c(-c3ccc(S(=O)(=O)N[C@@H](C)C(F)(F)F)cn3)n(C3CCC3)c2c1 :: 206 to 212 °C

For the compound Cc1cc2c(cc1F)c(C#N)c(-c1ccc(S(=O)(=O)NC(C)(C)C(F)(F)F)cn1)n2C1CCCC1 , what melting point is on record?
223 to 225 °C

# input compound: CCn1c(-c2ccc(N(CC#N)S(=O)(=O)C3CC3)nc2)c(C#N)c2ccc(OC(C)C)cc21 ; wanted: its melting point
236 to 238 °C

For the compound Cc1ccc2c(c1)c(C#N)c(-c1ccc(S(=O)(=O)N[C@@H](C)C(F)(F)F)cn1)n2CC1CC1 , what melting point is on record?
175 to 180 °C

Field request: melting point | item: Cc1c(F)cc2c(C#N)c(-c3ccc(S(=O)(=O)NC(CF)CF)cn3)n(C3CCCC3)c2c1F
199 to 203 °C
